Tested on: MCF7
Experiment: Antiproliferative activity against human MCF7 cells assessed as reduction in cell proliferation in RPMI containing 10% FBS incubated for 5 days by Cell-titer-Glo assay
Assay type: functional, cell-based
Conditions: MCF7, 120 h
readout-name: pIC50
Note on pIC50: it is the negative log10 of concentration, concentration in mol/L.

Any idea what its pIC50 is? The compound is CC1=C(c2cccc(C#N)c2)C(c2ccc(OC[C@H](C)N3CC[C@@H](C)C3)cc2)Oc2ccc(O)cc21 (some centres not stated)
8.59

How about this compound: CC1=C(c2cccc(O)c2)C(c2ccc(OCCN3CCC(C)CC3)cc2)Oc2ccc(O)cc21 (configuration not stated)
9.70

How about this compound: CC1=C(c2cccc(O)c2)C(c2ccc(OC[C@H](C)N3CC[C@@H](C)C3)cc2)Oc2ccc(O)cc21 (some centres not stated)
9.70

How about this compound: CC1=C(c2cccc(O)c2)C(c2ccc(OC[C@H](C)N3CCCC3)cc2)Oc2ccc(O)cc21 (some centres not stated)
9.70

How about this compound: CC1=C(c2cccc(O)c2)C(c2ccc(OC[C@@H](C)N3CC[C@H](C)C3)cc2)Oc2ccc(O)cc21 (some centres not stated)
9.70

###

Target: Estrogen receptor (Homo sapiens, UniProt P03372)
Sequence (P03372 whole entry): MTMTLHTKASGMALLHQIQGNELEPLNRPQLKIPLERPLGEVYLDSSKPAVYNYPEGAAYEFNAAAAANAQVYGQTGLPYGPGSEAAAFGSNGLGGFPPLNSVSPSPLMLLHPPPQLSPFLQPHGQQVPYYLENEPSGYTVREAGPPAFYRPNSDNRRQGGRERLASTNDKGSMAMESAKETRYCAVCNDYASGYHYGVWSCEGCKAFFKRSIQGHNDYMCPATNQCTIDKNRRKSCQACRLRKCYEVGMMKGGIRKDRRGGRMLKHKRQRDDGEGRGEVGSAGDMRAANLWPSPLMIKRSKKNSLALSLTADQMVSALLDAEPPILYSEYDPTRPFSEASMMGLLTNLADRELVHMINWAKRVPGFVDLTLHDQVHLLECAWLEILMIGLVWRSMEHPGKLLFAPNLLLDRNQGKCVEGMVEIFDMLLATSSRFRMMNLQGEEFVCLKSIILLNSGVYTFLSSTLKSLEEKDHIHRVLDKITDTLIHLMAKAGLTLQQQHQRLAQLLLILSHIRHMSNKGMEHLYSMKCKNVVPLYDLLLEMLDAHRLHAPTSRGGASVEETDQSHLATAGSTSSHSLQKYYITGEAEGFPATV
Experiment: Induction of ERalpha degradation in human MCF7 cells in phenol red free RPMI medium containing 5% charcoal dextran-treated FBS incubated for 4 hrs by SP1 and anti-ER rabbit monocolnal antibody based in-cell Western assay
Below, each entry is listed with its recorded pIC50.
Note on pIC50: it is the negative log10 of concentration, concentration in mol/L.

Examples with their reported pIC50 follow.
Any idea what its pIC50 is? The compound is CC1=C(c2cccc(C#N)c2)C(c2ccc(OC[C@H](C)N3CC[C@@H](C)C3)cc2)Oc2ccc(O)cc21 (stereo not given in full)
9.15

How about this compound: CC1=C(c2cccc(O)c2)C(c2ccc(OCCN3CCCCCC3)cc2)Oc2ccc(O)cc21 (stereo not given)
9.70

How about this compound: CC1=C(c2cccc(O)c2)C(c2ccc(OC[C@H](C)N3CC[C@@H](C)C3)cc2)Oc2cc(O)ccc21 (stereo not given in full)
9.70

How about this compound: CC1=C(c2ccc(O)cc2)C(c2ccc(OC[C@H](C)N3CC[C@@H](C)C3)cc2)Oc2cc(O)ccc21 (stereo not given in full)
9.52

How about this compound: CC1=C(c2cccc(O)c2)C(c2ccc(OCCN3CCCCC3)cc2)Oc2ccc(O)cc21 (stereo not given)
9.70

***
Any idea what its pIC50 is? The compound is CC1=C(c2cccc(O)c2)C(c2ccc(OC[C@@H](C)N3CC[C@H](C)C3)cc2)Oc2ccc(O)cc21 (stereo not given in full)
9.70

How about this compound: CC1=C(c2cccc(O)c2)C(c2ccc(OC[C@H](C)N3CC[C@H](C)C3)cc2)Oc2ccc(O)cc21 (stereo not given in full)
9.70

How about this compound: CC1=C(c2cccc(O)c2)C(c2ccc(OC[C@H](C)N3CCCC3)cc2)Oc2ccc(O)cc21 (stereo not given in full)
9.40

How about this compound: CC1=C(c2cccc(F)c2)C(c2ccc(OC[C@H](C)N3CC[C@@H](C)C3)cc2)Oc2ccc(O)cc21 (stereo not given in full)
9.30

How about this compound: CC1=C(c2cccc(O)c2)C(c2ccc(OC[C@H](C)N3CCCCCC3)cc2)Oc2ccc(O)cc21 (stereo not given in full)
9.70

###

Below, each entry is listed with its recorded pIC50.
Tested on: MCF7
Test: Antiproliferative activity against human MCF7 cells assessed as reduction in cell proliferation in RPMI containing 10% FBS incubated for 5 days by Cell-titer-Glo assay
Type: functional, cell-based
Details: MCF7, 120 h
Note on pIC50: it is the negative log10 of concentration, concentration in mol/L.

Examples with their reported pIC50 follow.
Any idea what its pIC50 is? The compound is CC1=C(c2cccc(S(C)(=O)=O)c2)C(c2ccc(OC[C@H](C)N3CC[C@@H](C)C3)cc2)Oc2ccc(O)cc21 (some centres not stated)
8.37

How about this compound: CC1=C(c2cccc(O)c2)C(c2ccc(OC[C@H](C)N3CCC3)cc2)Oc2ccc(O)cc21 (some centres not stated)
10.00

How about this compound: CC1=C(c2cccc(O)c2)[C@H](c2ccc(OC[C@H](C)N3CC[C@@H](C)C3)cc2)Oc2ccc(O)cc21
10.00

How about this compound: CC1=C(c2cccc(F)c2)C(c2ccc(OC[C@H](C)N3CC[C@@H](C)C3)cc2)Oc2ccc(O)cc21 (some centres not stated)
9.00

How about this compound: CC1=C(c2cccc(O)c2)C(c2ccc(OC[C@H](C)N3CC[C@H](C)C3)cc2)Oc2ccc(O)cc21 (some centres not stated)
9.70

How about this compound: CC1=C(c2cccc(O)c2)C(c2ccc(OCCN3CCC3)cc2)Oc2ccc(O)cc21 (configuration not stated)
9.70

How about this compound: CC1=C(c2cccc(O)c2)C(c2ccc(OC[C@H](C)N3CCCCCC3)cc2)Oc2ccc(O)cc21 (some centres not stated)
9.70

How about this compound: CC1=C(c2cccc(O)c2)C(c2ccc(OCCN3CCCC3)cc2)Oc2ccc(O)cc21 (configuration not stated)
9.52

***
Any idea what its pIC50 is? The compound is CC1=C(c2cccc(O)c2)[C@@H](c2ccc(OC[C@H](C)N3CC[C@@H](C)C3)cc2)Oc2ccc(O)cc21
7.23

How about this compound: CC1=C(c2cccc(O)c2)C(c2ccc(OCCN3CCCCCC3)cc2)Oc2ccc(O)cc21 (configuration not stated)
9.70

How about this compound: CC1=C(c2ccccc2)C(c2ccc(OC[C@H](C)N3CC[C@@H](C)C3)cc2)Oc2ccc(O)cc21 (some centres not stated)
9.40

How about this compound: CC1=C(c2cccc(O)c2)C(c2ccc(OCCN3CCCCC3)cc2)Oc2ccc(O)cc21 (configuration not stated)
9.70
